tested on: P. aeruginosa ZEM-1A; assay: microbe, parasite or virus in culture; conditions: clinical isolate; 12.5% MHB pH 7.4; 16–20 h at 37 °C; cells marked c: single measurement (in duplicates)
No end group written: not given here.
Experimental readout: MIC P. aeruginosa ZEM-1A, 12.5% MHB

Example cases with answers are listed next.
{"columns": ["Substance", "Target under test", "Experimental readout", "Experimental value"],
 "data": [
  ["VDKPPYLPRPRPPRRIYNR [sr5Cterm-Onc] (VDKPPYLPRPRPPRRIYNR-NH2; also: residues 15-19 stereorandomized (1:1 L/D mixture))", "P. aeruginosa ZEM-1A", "MIC P. aeruginosa ZEM-1A, 12.5% MHB", "4 to 8 µg/mL"],
  ["VDKPPYLPRPRPPRRIYNR [sr8Cterm-Onc] (VDKPPYLPRPRPPRRIYNR-NH2; also: residues 12-19 stereorandomized (1:1 L/D mixture))", "P. aeruginosa ZEM-1A", "MIC P. aeruginosa ZEM-1A, 12.5% MHB", "4 to 8 µg/mL"]
]}

Let us examine a further case.
IN: Field request: MIC P. aeruginosa ZEM-1A, 12.5% MHB | item: VDKPPYLPRPRPPRRIYNR-NH2 [L-Onc, reference compound]
OUT: 8 to 16 µg/mL
